- measurement description: solvent given as SMILES
- reported conditions: in Cc1ccccc1
Please enter TRUE where absorption maximum is greater than or equal to 400 nm, and FALSE where it is lower.

smiles repr	qualitative label
CCCCCCC(CCCCCC)N1C(=O)c2cccc3c(-c4ccc(-c5ccc(OC)cc5)cc4)ccc(c23)C1=O	FALSE

Exam item: API: above_or_equal(metric=absorption maximum, cutoff=400 nm) for item `c1ccc2c(c1)Oc1ccccc1N2c1ccc2c(c1)c1ccccc1n1c3ccccc3nc21`
Marked response: FALSE

Exam item: API: above_or_equal(metric=absorption maximum, cutoff=400 nm) for item `CC(C)(C)c1ccc2c(c1)sc1[n+]2[B-](F)(F)n2c(c3cccc4c(Br)ccc2c43)=C1C#N`
Marked response: TRUE

Exam item: API: above_or_equal(metric=absorption maximum, cutoff=400 nm) for item `c1cc2cc(c1)c1cccc(c1)c1ccc3ccc4ccc(cc4c3c1)c1cccc(c1)c1cccc2c1`
Marked response: FALSE

Exam item: API: above_or_equal(metric=absorption maximum, cutoff=400 nm) for item `CC1=CC(C)=[N+]2C1=C(c1ccccc1)c1c(C)c(-c3cccs3)c(C)n1[B-]2(F)F`
Marked response: TRUE

Exam item: API: above_or_equal(metric=absorption maximum, cutoff=400 nm) for item `FC(F)(F)c1cc2n(n1)[B-]1(c3ccccc3-c3ccccc31)[n+]1ccc3ccccc3c1-2`
Marked response: FALSE

Exam item: API: above_or_equal(metric=absorption maximum, cutoff=400 nm) for item `CCCCCCCCC1(CCCCCCCC)c2cc(-c3ccc(C(F)(F)F)cc3)ccc2-c2ccc(N(c3ccc(-n4c5ccccc5c5ccccc54)cc3)c3ccc4c(c3)C(CCCCCCCC)(CCCCCCCC)c3cc(-c5ccc(C(F)(F)F)cc5)ccc3-4)cc21`
Marked response: FALSE
